- assaySystem: Maternal embryonic leucine zipper kinase (Homo sapiens);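 also: each value is the mean inhibition of MELK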
- measurementConditions: at 1 µM
metricName: inhibition (%)
Field format: number, assumed %, no unit text.

For orientation, consider the following solved cases.
CCOc1ccc2c(-c3ccnc(Nc4cccc(C(F)(F)F)c4)n3)cnn2n1    3.63
COC(=O)c1sc(-n2cnc3cc(OC)c(OC)cc32)cc1OCc1ccccc1C(F)(F)F    12.6
CCNC(=O)O[C@H]1CN[C@H](C#Cc2cc3ncnc(Nc4ccc(OCc5cccc(F)c5)c(Cl)c4)c3s2)C1    4.99

Could you now look at the following molecule, please?
Req: So what does the record say about inhibition for Clc1ccc(-c2nn3ncccc3c2-c2ccnc(Nc3ccccc3)n2)cc1 ?
Resp: 1.1
